system: pooled human IgG (human); also: test concentration or dose not given here
protocol notes: cell-based or functional assay
measured quantity: Enzyme Activity Endpoint Assay (purified): Fc (ng/µL)

- binder: "PRT-195 (enzyme) MANQEIRYSEVTPYHVTSVWTKGVTPPDHDFRKIVDGEDVFHAPYVANQGWYDITKTFNGKDDLLCGAATAGNMLHWWFDQNKDQIKRYLEEHPEKQKINFNGEQMFDVKEAIDTKNHQLDSKLFEYFKEKAFPYLSTKHLGVFPDHVIDMFINGYRLSLTNHGPTPVKEGSKDPRGGIFDAVFTRGDQSKLLTSRHDFKEKNLKEISDLIKKELTEGKALGLSHTYANVRHSINHVINLWGADFDSNGNLKAIYVTDSDDKKLTIGDERIGMKKYFVGVNSAGKVAISAKEIKEDNIGAQVLGLFTLSTGQDSWNQTN"
  unit name: "ng/µL"
  numeric value: 30
- binder: "PRT-215 (enzyme) MEVVEVWPYGQNPNGKTEILSQTEDSESLQRLRDIEDFQAEKKKEGVVYTKWLDGVTVKDHDFRKIVDGNIEYYATPLLNGRGWYDINKDFNRDSDKCAAAVAANMFHYWLDRNRDNVDRFLKQNPEKHGIIELPDGQLKLSDFLNTYESDNGYRDKSKLFDFISKNFNGPVWTDKLLDNYINGYGYNYKYGRTIEDPTKNTSKINFFKKVFNEKILTDIHSIRNQNEFSDLLSEALYTGKAIGLSYGPAGLRHSLGHIISVWGADFDEDGNVVAIYVTDSDDKKLTIGDERVGLKRYKVSTDDEGRARLTAYTETDNTGGQVRGLWTLDTGTQAWADYFDKTEQTGTDQAEQLEHHHHHH"
  unit name: "ng/µL"
  numeric value: 310
- binder: "PRT-223 (enzyme) MEVVEVWPYGQNPNGKTEILSQTEDSESLQRLRDIEDFQAEKKKENVVYTKWLDGVDVKDHDFRKIVDGNIAYYATPLLNGRGFYDINKDFNRDSDKCAAAVAANMFHYWLDINRDNVDRFLRQNPEKHGIIELPDGQLKLSDFLNTYESDHGYRDKSKLFDFISNNFNGPVWTDKLLDNYINGYAYNYKYGRTIEDPTKNTSKINFFKEVFNEKILTNNHSIRNQNEFSDLLSEALYTGKAIGLSYGPAGLRHSLGHIISVWGADLDADGNVVAIYVTDSDDKKLTIGDERVGLKRYKISTDDENRLRLTAYEETHNTGGQIRGLWTLDTGKQAWADYFDKTEQTGTDQAEQLEHHHHHH"
  unit name: "ng/µL"
  numeric value: 391
- binder: "PRT-209 (enzyme) MEVVEVWPYGQNPNGKTEILSQTEDSESLQRLRDIEDFQAEKKKQGVVYTKWLDGVDVDDHDFRKIVDGNIAYYATPLLNGKGFYDINKDFNRDSDKCAAAVAANMFHYWLDQNRDNVDRFLRQNPEKHGIIELPDGQLKLSDFLNTYESDNGYRDKSKLFDFISNNFNGPVWTDKLLDNYINGYAYNYKYGRTIEDPTKNTSKINFFKDVFNEKILTNIHSIRNYNTFSNLLSEALYTGKAIGLSYGPAGLRHSLGHIISVWGADLDEDGNVVAIYVTDSDDKKLTIGDERVGLKRYKISTDDEGRARLTAYEENDNTGGEIRGLYTLDTGKQAWADYFDKTEQTGTDQAEQLEHHHHHH"
  unit name: "ng/µL"
  numeric value: 124
